Sourced from patent EP0335745A1

# Percentage Iron Removal Transferrin ⁵⁹Fe 8h annotations
biological target: human transferrin (Homo sapiens); construct: purchased Sigma; test: Iron mobilisation from 59Fe transferrin by dialysis against chelator solution; assay type: biochemical; conditions: chelator 4x10⁻³M, 37°C, pH 7.3, 2 x PBS, 8h
Sequence (P02787 20-698): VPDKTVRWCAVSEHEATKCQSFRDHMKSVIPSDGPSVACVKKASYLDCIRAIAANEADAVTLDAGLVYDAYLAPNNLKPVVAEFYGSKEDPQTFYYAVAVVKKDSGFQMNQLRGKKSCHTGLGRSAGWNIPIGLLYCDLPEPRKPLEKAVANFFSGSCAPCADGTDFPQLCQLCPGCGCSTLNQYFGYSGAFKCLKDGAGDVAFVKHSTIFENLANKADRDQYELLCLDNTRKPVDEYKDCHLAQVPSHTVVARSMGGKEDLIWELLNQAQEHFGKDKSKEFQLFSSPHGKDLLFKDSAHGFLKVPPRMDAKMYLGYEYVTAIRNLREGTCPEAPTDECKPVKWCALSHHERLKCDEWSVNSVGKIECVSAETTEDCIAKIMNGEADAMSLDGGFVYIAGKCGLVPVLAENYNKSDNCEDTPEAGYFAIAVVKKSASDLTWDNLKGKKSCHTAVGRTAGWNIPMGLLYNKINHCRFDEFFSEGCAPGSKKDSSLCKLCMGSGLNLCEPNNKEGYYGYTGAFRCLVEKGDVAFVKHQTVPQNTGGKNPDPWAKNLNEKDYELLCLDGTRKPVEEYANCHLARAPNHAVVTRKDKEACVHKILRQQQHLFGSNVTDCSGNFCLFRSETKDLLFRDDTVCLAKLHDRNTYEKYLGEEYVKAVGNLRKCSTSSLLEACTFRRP
readoutKind: Percentage Iron Removal Transferrin ⁵⁹Fe 8h

[
  {
    "compound": "CCc1c(O)c(=O)ccn1C [Example 4, 2-Ethyl-3-hydroxy-1-methylpyrid-4-one]",
    "observedResult": 100.0
  },
  {
    "compound": "CCc1c(O)c(=O)ccn1CC [Example 5, 1,2-diethyl-3-hydroxypyrid-4-one]",
    "observedResult": 96.6
  },
  {
    "compound": "CCCn1ccc(=O)c(O)c1CC [Example 6, 2-ethyl-3-hydroxy-1-propylpyrid-4-one]",
    "observedResult": 97.6
  },
  {
    "compound": "Cc1c(O)c(=O)ccn1C [Example 1, 1,2-Dimethyl-3-hydroxypyrid-4-one]",
    "observedResult": 99.5
  }
]
